- test.protocol: MRT (0 to t) in Kunming mouse at 1 mg/kg, iv measured upto 48 hrs by LC/MS analysis
- Assay type: ADME, organism-based
- run.parameters: in vivo
value.type: MRT last at 48 h (h)

1. CNCCN(C)C(=O)O[C@@H]1[C@@]2(C(C)C)O[C@H]2[C@@H]2O[C@]23[C@]12O[C@H]2C[C@H]1C2=C(CC[C@@]13C)C(=O)OC2 : 11.5

====

half-life for assorted compounds
- test.protocol: Stability of compound in PBS buffer at pH 7.4 assessed as half life
- Type: physicochemical
value.type: half-life (h)

1. CC(C)[C@]12O[C@H]1[C@@H]1O[C@]13[C@]1(O[C@H]1C[C@H]1C4=C(CC[C@@]13C)C(=O)OC4)[C@@H]2OC(=O)NCC1CCCN1 (some centres undefined) : 2.46
2. CNCCN(C)C(=O)O[C@@H]1[C@@]2(C(C)C)O[C@H]2[C@@H]2O[C@]23[C@]12O[C@H]2C[C@H]1C2=C(CC[C@@]13C)C(=O)OC2 : 17.7
3. CC(C)[C@]12O[C@H]1[C@@H]1O[C@]13[C@]1(O[C@H]1C[C@H]1C4=C(CC[C@@]13C)C(=O)OC4)[C@@H]2OC(=O)NC1CCCCC1N (some centres undefined) : 1.85
4. CC(C)[C@]12O[C@H]1[C@@H]1O[C@]13[C@]1(O[C@H]1C[C@H]1C4=C(CC[C@@]13C)C(=O)OC4)[C@@H]2OC(=O)NCCN : 25.2
